Method Description: qHTS for differential inhibitors of proliferation of Plasmodium falciparum line D10 (AID 1877);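 note: parasites grown with compound for 72 h before DNA staining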
Cond: series mostly up to 28.7 µM
Results filed as inconclusive are left out. Active and inactive are the calls of the source. Calls come from the whole dose curve; as a rule, active = well fitted curve in the direction sought with a large enough effect; inconclusive = small, poorly fitted or top-dose-only effect, or another doubt; inactive = no such curve, though single readings can be large or run the other way.
Your answer must be one of the following: YES for active, NO for inactive

The examples below pair each entry with its known result.
molecule=NCCSSCCN class=NO
molecule=CN(C)C(N)=NCCC[C@H](N)C(=O)O class=NO
molecule=N[C@@H](CC(=O)O)C(=O)O class=NO
molecule="CC(C)(C)NCC(O)COc1nsnc1N1CCOCC1 (centres undefined)" class=NO
molecule="CO/N=C(\\C(=O)N[C@@H]1C(=O)N2C(C(=O)O)=C(COC(C)=O)CS[C@H]12)c1csc(N)n1 (stereo in doubt)" class=NO

*Q* Please state the recorded outcome for this molecule: CCCCCCCCCCCCCCCCCC(=O)NCC(COP(=O)([O-])OCC[N+](C)(C)C)OCC (centres undefined)
*A* YES

*Q* Next entry: `CC(C)(C=O)Cc1cc(C(C)(C)C)c(O)c(C(C)(C)C)c1`
*A* NO

*Q* Next entry: `O=C(O)[C@@H]1C[C@H](C(=O)O)N1`
*A* NO

*Q* Next entry: `COC1=C(OC)C(=O)c2ccccc2C1=O`
*A* YES

###

Method Description: Cell Viability - LYMP1-003 - Assay at 24 hr (AID 963)
Cond: LYMP1-003 lymphoblastoid cell viability; series mostly up to 92.2 µM
Description: NIH Chemical Genomics Center [NCGC] NIH Molecular Libraries Screening Centers Network [MLSCN] National Institutes of Environmental Health Sciences [NIEHS] National Toxicology Program [NTP] We have developed a 1536-well cell-based assay for quantitative high throughput screening (qHTS) against a number of cell lines to determine in vitro cytotoxicity of small molecules. […] 8. Detection; Luminescence; Viewlux plate reader […]
Activity calls are given as the source filed them. Calls come from the whole dose curve; as a rule, active = well fitted cell-killing curve with a large enough effect; inconclusive = small, poorly fitted or top-dose-only effect; inactive = flat fitted curve, though single readings scatter.
Your answer must be one of the following: y for active, n for inactive

compound=COc1cc(/C=C/C(=O)CC(=O)/C=C/c2ccc(O)c(OC)c2)ccc1O class=y
compound=CN(C)c1ccc(C(=C2C=CC(=[N+](C)C)C=C2)c2ccccc2)cc1 class=y
compound=C#C[C@]1(O)CC[C@H]2[C@@H]3CCc4cc(O)ccc4[C@H]3CC[C@@]21C class=n

*Q* Please state the recorded outcome for this compound: `O=C(O)/C=C\C(=O)O`
*A* n

*Q* Next entry: `CCCOC(=O)c1ccc(O)cc1`
*A* n

###

Tested on: PC49
Method Description: qHTS profiling for inhibitors of Plasmodium falciparum proliferation (AID 504749); note: nearly all actives have a fitted effect of over 60% in size
Cond: P. falciparum in erythrocytes, SYBR Green DNA, 72 h; series mostly up to 28.7 µM
Results filed as inconclusive are left out. The source made the active and inactive calls. Calls follow the shape of the dose curve; as a rule, active = well fitted inhibition curve with a large enough effect; inconclusive = small, poorly fitted or top-dose-only effect; inactive = flat fitted curve, though single readings scatter.
Assay Readout: outcome

compound=Clc1ccccc1-c1nc(-c2ccncc2)no1 target_desc=PC49 assay_readout=outcome observed_measurement=inactive
compound=O=C(O)[C@H](O)[C@@H](O)[C@H](O)[C@H](O)CO target_desc=PC49 assay_readout=outcome observed_measurement=inactive
compound=O=C(Nc1ccc(C(=O)O)c(O)c1)c1ccccc1 target_desc=PC49 assay_readout=outcome observed_measurement=inactive
compound=CCCCCC[C@@H](O)C/C=C\CCCCCCCC(=O)O target_desc=PC49 assay_readout=outcome observed_measurement=inactive
compound=CCCCCCCCCCCC(=O)[O][Sn]([CH2]CCC)([CH2]CCC)[O]C(=O)CCCCCCCCCCC target_desc=PC49 assay_readout=outcome observed_measurement=inactive

*Q* # query: outcome of entry `C#C[C@]1(O)CC[C@H]2[C@@H]3CCc4cc(O)ccc4[C@H]3CC[C@@]21C`
*A* inactive

*Q* Next entry: CN1[C@@H]2CC[C@H]1CC(OC(=O)C(CO)c1ccccc1)C2 (some centres not stated)
*A* inactive

*Q* Next entry: `O=C(OCc1ccccc1)c1ccccc1`
*A* inactive

*Q* Next entry: `CCCOC(=O)c1ccc(O)cc1`
*A* inactive

*Q* Next entry: `O=C(O)[C@H](CC(=O)N1C[C@H]2CCCC[C@H]2C1)Cc1ccccc1`
*A* inactive

*Q* Next entry: `Nc1c(CC(=O)O)cccc1C(=O)c1ccc(Br)cc1`
*A* inactive

*Q* Next entry: `O=C(O)COc1ccc(C(=O)c2cccs2)c(Cl)c1Cl`
*A* inactive
